From: the domain aggregation screens of Martell et al. (2025)

# Assay Remarks: soluble fraction after stress (log2 fold change); higher = more stays soluble; pooled small domains, quantitative proteomics
# Condition Set: stress: 50 degC
# binarize soluble fraction (log2): threshold 0.006 inclusive, high side condition met, low side condition not met

| Construct Sequence | Group Label |
| --- | --- |
| HMNIIMLGEFIKEQRIKRKMTQEYLASELGISRPTYSQIELGTRELTIPEARKMAAIFNISLEDFLAEKE | condition not met |

input: Would you say `HMPTTRPEAEAHYETHQRYHDLQIDVEGREAFKVATGSLTLVQEFDEKDDYDLSIPTPRSPAILLTT` shows soluble fraction (log2) at minimum 0.006?
output: condition met

input: Same question, `HMLTANPEEVVNRLTSAGEVGVRPLLDVDDPINAISTLLAIREDVYKQFAQFDTVGKSPSEIAHEIDDFL` this time
output: condition not met

input: Same question, `HMDGRVQATAEKLRAALDRLARSSVGSPMIERQLTVAALAREARVGRNAIYANHRDILDELIRVRQQRRA` this time
output: condition met

input: Same question, `HMNSVKSPMPGTILGLKVSVGDTVKVGDELLVLESMKMENMINSPIDGTVSKILISEGDSVQHGQELII` this time
output: condition met

input: Same question, `HMETKIKFQIQTLDELNIRKVADWDAKAITTVKKGQILDVVDTVAAKNGSTPMYRLESGLYITASPKYVKK` this time
output: condition not met

input: Same question, `HMDAYDEVTTLSQMVASGKNTTVAHLKHLKEYHQTDYLRQAVEWLLSNRKNVSFSVDEVMQEVHN` this time
output: condition not met

input: Same question, `HMLPGVPVVAGKTQSAATRILKAAGYAVSVVREEAFDGVTGTVLRTSPEAGSPLAPGSRVTLVVLQVV` this time
output: condition not met

---

# Assay Remarks: soluble fraction after stress (log2 fold change); higher = more stays soluble; pooled small domains, quantitative proteomics
# Condition Set: stress: 50 degC
# binarize soluble fraction (log2): threshold -0.7 inclusive, high side class 1, low side class 0

Some solved entries appear below for comparison.
| Construct Sequence | Group Label |
| --- | --- |
| HMSYQFKIKNNAAVEVTVSEKNNLLGSTYGDKATVAAGMEKNVTFYTDKPDVVVDTNGNFTITVHDKEIII | class 1 |
| HMETMSGTVKWFNTQKGYGFITGDDGAEYFAHQTQIKMDGFRTLDAGDIVEFDVRSEEKGLAAVNIVP | class 1 |
| HMGIDISAFSETALQVLRLQAAGYTAKEISEKLHITPRTVKYHASQNYRKLDAKNLVDAVQIAQALHI | class 0 |
| HMVWPETEAIVTEDFIGKKRSEVQQEGVIFEFFGEGDMVIDQLPRGGVTLNESGRVWIYLGEDTF | class 1 |
| HMSFNSQENKSVLWQFLLENNFFIGLSDKKFNKVKDIFEKNIQSISIVNDSISNKNKILIQKMMEELELL | class 0 |

input: Would you say `HMSENEVQAKVKEIVDRYAGDKSALIAILQDVQDEYRYLPKEALVSIQQQMNIPLSRVYEVATFYDAFS` shows soluble fraction (log2) at minimum -0.7?
output: class 1

---

# Assay Remarks: soluble fraction after stress (log2 fold change); higher = more stays soluble; pooled small domains, quantitative proteomics
# Condition Set: stress: 50 degC
Reported soluble fraction (log2) values for a set of sequences
No unit in the answer, only the number.

For orientation, consider the following solved cases.
| Construct Sequence | soluble fraction (log2) |
| --- | --- |
| HMRLPNGYGSITKLSGKRRKPFMVRITTGYDNEGKQLMSVLGYYATRTEALAVLAEYNKNPYNPI | -2.57 |
| HMDLSQTVQAKALARVNVREGAGTHFKSLGKLKKGELLPVFRVGNSWASIWWKGRVAYVHTDYLRFESA | -0.847 |
| HMKSILDDVVGLGPVRKKALLSAAGGFRKLRDMDVDEVIGLGAVPEEVAREVVTVLAQYNGERDRVEGL | -0.0545 |

input: Please give the measured soluble fraction (log2) for this sequence: `HMFTLDIGTIIRNRRLELNLTLEEIGNAVGVSKSTVQKWENGFISNMKRDKISALAKVLNINPVTLITGEY`
output: -1.12

---

Reported soluble fraction (log2) values for a set of sequences
# Assay Remarks: soluble fraction after stress (log2 fold change); higher = more stays soluble; pooled small domains, quantitative proteomics
# Condition Set: stress: 50 degC
No unit in the answer, only the number.

For orientation, consider the following solved cases.
| Construct Sequence | soluble fraction (log2) |
| --- | --- |
| HMRSFGTVAQARGRWKAFYVGPDKRRHTPGVTFSNPIRAQGWLAQELTLIELGQWTPPAQRREKAEVAS | -2.4 |
| HMAFRLPNGYGTIRRLTGNRRKPYVALVNPTQVFDDEKGTSHYKYDLLGTFAEKIDAYNAVMQYHKSPGGL | -1.35 |
| HMKKEQVIVPNVVGDTYDVALRKLTDAKLKVGETFPADREGHQGVIEKQSPAAGETVDEDTPVALFFKV | 0.0344 |
| HMDQAEDVLSIPVDALMRGNQVYIKDDTVTEQQGPIPAGFKAVEVETGLISDSYVEIKSGLSEGDTVYVAE | 0.141 |
| HMAPGIGDSKYFSHIYEMKHIDTIIDNDKGDRLIEHFEIQDTPFIFTKHWTSAFGFSKRQQEIITDYLSYF | 0.0839 |

input: Please give the measured soluble fraction (log2) for this sequence: `HMESYDSEIKEVLDLAGKGRWEEAQTKADALREMAPNNSLVERLHGWVLQAAHQRREQALENDIRE`
output: 0.286

input: Same question, `HMISDQENDLNLKHLFDTADQNKDGLILESELKMLMTNLEINKETYDTVMKQITPAGMDYKTFSSL` this time
output: 0.0963

---

# Assay Remarks: soluble fraction after stress (log2 fold change); higher = more stays soluble; pooled small domains, quantitative proteomics
# Condition Set: stress: 50 degC
Each entry falls into one class according to its soluble fraction (log2); the ranges are low: < -0.6; medium: ≥ -0.6 and < 0.02; high: ≥ 0.02

| Construct Sequence | Group Label |
| --- | --- |
| HMYSDDNKSILNLIDNLFNKENIKIDINAKKLLSNYLGVDRLVTKGEIEKAILFAGTKKHLSIEDISAFLS | medium |
| HMTGMEKFLTIPSIRESTAAFEREYLIHYLDENAWQVSKTAAAIGIERTTLYKKMKQLGIVPIEE | low |
| HMRNGGHTVYRNNGSLFIVVRDGDKLESVASEFRVSPKKLIKYNDLDIHSNVKTGDMIYIRPKA | medium |
| HMAVRNTKQKQLVLSLLKNSGRPMTAGEIYRLAVQQYPNIAKSTVYRNLENLVSRGEVSQGMHQNGESFYS | medium |
| HMAPSLQISLKQAIITAQQQHPGSKALNADFDGARGTPRYVIETLLPTGELRELTIDAQSGQVMEDHPDR | high |

input: Determine which band this sequence sits in: `HMRKIFPFNPNFITDQRGYFLGMSTSEIDRLHHFRAANKWIQSAQEFQVVTKVSNAWLSEFSPYFNFP`
output: low

input: Same question, `HMKSLLDQINGIGAIRKRALLNHFGSARAVESASLDEIKSVEGVEAKVAKKIYNFFHEYKNMLR` this time
output: low

input: Same question, `HMRRGKLGMASRLEQIPGIGPKKRKALLKAFGNSIDAIKSAPVEDLMKVKGINLVLAESIKEL` this time
output: medium

input: Same question, `HMKYSNDEVERDLYVRGVIYQIGDLVENKLDGTSGEVVRRGPNYVQYTDGENFYKAFLSALQEQK` this time
output: medium

input: Same question, `HMTVGEKIQYYRKKIGLSQEELGQKMLLSRQTISLWEMDKTLPTVDNLLRLKEIFSVSIDELLSENEPK` this time
output: medium

---

# Assay Remarks: soluble fraction after stress (log2 fold change); higher = more stays soluble; pooled small domains, quantitative proteomics
# Condition Set: stress: 50 degC
Reported soluble fraction (log2) values for a set of sequences
No unit in the answer, only the number.

| Construct Sequence | soluble fraction (log2) |
| --- | --- |
| HMVEELDVQFIKLTVQGDHPWKNKKIRELSIPWDLLFVLIIRGDKSIIPNGKTTIKDGDIVVVSAPEYRG | -0.676 |

input: Please give the measured soluble fraction (log2) for this sequence: `HMSQPLYWQIRRMVIDHDDANDVLQNTFIKAWSNIGSFRGDAKFSTWLYKIAVNESITFINKKKVQN`
output: -0.469

input: Same question, `HMNPMLEPAGEIRLSDGVLLRWQSERLPGDDTVRGPGSLYELGLYRVKVRVSAPQQGVRESSVELAGWRQV` this time
output: -0.0771

input: Same question, `HMNSTGVYQRPDGFWEYRFTLSINGKKLPRRKSTDLMGNKLKTKREAIKAREEAIIALRTEKTI` this time
output: -0.994

input: Same question, `HMKFLYQKAREEIISLIQDGEIKPSEKIMPERELSELLGYNRMTIKKAINSLVAEGVLMKKRGAGTFLLG` this time
output: -0.387

input: Same question, `HMNQWQLLSEDGAILGTRVLYHPHETEQPFTRSLSGVKIPAHVQSVTIRAGDLVHGFGGREIQMQLPPIV` this time
output: -0.0987

input: Same question, `HMKIDLPIWLNKKAWEAWVEYKKERKQKLTPSIIKFQLRILEKNKEDHPEIIRNSITNGWTGLFPLK` this time
output: -1.27

input: Same question, `HMGDVPESLVEKAGHSINAKIISAWGMTETGASTMTRPQDDPERAIYSDGVVLPLMDVRVVNDAGLA` this time
output: 0.0119
